I'd be grateful if you could share measured R = Retardation for these entries.
# Test system: Wheat
# TEST NAME: Whole plant screen for plant growth regulator activity, wheat (WW)
# Assay type: in vivo, Wheat (Timmo)
# TEST PARAMETERS: WW, 4000 ppm (4 kg/ha), visual score after 2-6 weeks

Enquiry: I am curious: what R = Retardation value has been reported for CC(C)C#CC(O)(c1cncnc1)C(C)(C)C (centres unmarked) ?
Return: 2 (31-60%)

Enquiry: If you can, please state the reported R = Retardation value of CC(C)(C)C(O)(C#CCCCCl)c1cncnc1 (centres unmarked) .
Return: 3 (61-100%)

Enquiry: Name the recorded R = Retardation for CC(C)CCC(O)(c1cncnc1)C(C)(C)C (centres unmarked) .
Return: 2 (31-60%)

Enquiry: Which R = Retardation is listed for CC(C)C(O)(CCC(C)(C)C)c1cncnc1 (centres unmarked) ?
Return: 3 (61-100%)

Enquiry: # get_value(readout='R = Retardation', item= CCCCCC#CC(O)(c1cncnc1)C(C)(C)C (centres unmarked) )
Return: 2 (31-60%)

Enquiry: Which R = Retardation value is on record for CCCCCCCC(O)(c1cncnc1)C(C)C (centres unmarked) ?
Return: 2 (31-60%)

Enquiry: // query R = Retardation value for entry CC(C)(C)/C=C/C(O)(c1cncnc1)C1(C)CC1 (centres unmarked)
Return: 2 (31-60%)

Enquiry: I have this molecule here, CCCC#CC(O)(c1cncnc1)C(C)(C)C (centres unmarked) , and I need its recorded R = Retardation.
Return: 3 (61-100%)

Enquiry: Looking for the measured R = Retardation of CC(C)C(O)(C#CC(C)(C)C)c1cncnc1 (centres unmarked) , can you help?
Return: 2 (31-60%)

Enquiry: For the molecule CCCCC#CC(O)(c1cncnc1)C(C)C (centres unmarked) , what R = Retardation is on record?
Return: 3 (61-100%)

Enquiry: Any idea what its R = Retardation is? The molecule is CCCCCC(O)(c1cncnc1)C(C)(C)C (centres unmarked)
Return: 2 (31-60%)

---

# Test system: Rice
# TEST NAME: Intermediate Retardant Test, rice
# Assay type: in vivo, Rice (Ishikari)
# TEST PARAMETERS: Oryza sativa, 672 h, 2000 ppm, overall spray, approximately 28 days, Table VI; read-out: Percentage Reduction in Height of Rice (Compared to formulation blank)
VALUE TYPE: Percent reduction in rice height vs formulation blank at 2000 ppm (%)
Express it in %; write the number only.

Enquiry: Which Percent reduction in rice height vs formulation blank at 2000 ppm value is on record for CC(C)C(O)(C#CC(C)(C)C)c1cncnc1 (stereo not shown) ?
Return: 20

Enquiry: Name the recorded Percent reduction in rice height vs formulation blank at 2000 ppm for CCCCCC(O)(c1cncnc1)C(C)(C)C (stereo not shown) .
Return: 39

Enquiry: Which Percent reduction in rice height vs formulation blank at 2000 ppm value is on record for CCCC#CC(O)(c1cncnc1)C(C)C (stereo not shown) ?
Return: 46

Enquiry: Recorded Percent reduction in rice height vs formulation blank at 2000 ppm of CC(C)C#CC(O)(c1cncnc1)C(C)C (stereo not shown) , please.
Return: 18

Enquiry: Report Percent reduction in rice height vs formulation blank at 2000 ppm for CC(C)C(O)(C#CCCCCl)c1cncnc1 (stereo not shown) please.
Return: 54

Enquiry: Record request: Percent reduction in rice height vs formulation blank at 2000 ppm value, item CCCCCC(O)(c1cncnc1)C(C)C (stereo not shown)
Return: 47

Enquiry: Reported Percent reduction in rice height vs formulation blank at 2000 ppm, molecule CCC(C)CC#CC(O)(c1cncnc1)C(C)C (stereo not shown) : ____
Return: 14
